Where do these numbers come from? They come from patent US7585859B2.

# measured_target: full-length human PDE4D5 isozyme (Homo sapiens)
# Construct: The full-length human PDE4D5 isozyme; His6 (N); TEV cleavage site (N); made in house; host or cells: baculovirus infected insect cells (unpurified lysate)
# Sequence (Q08499 1-745 isoform Q08499-6): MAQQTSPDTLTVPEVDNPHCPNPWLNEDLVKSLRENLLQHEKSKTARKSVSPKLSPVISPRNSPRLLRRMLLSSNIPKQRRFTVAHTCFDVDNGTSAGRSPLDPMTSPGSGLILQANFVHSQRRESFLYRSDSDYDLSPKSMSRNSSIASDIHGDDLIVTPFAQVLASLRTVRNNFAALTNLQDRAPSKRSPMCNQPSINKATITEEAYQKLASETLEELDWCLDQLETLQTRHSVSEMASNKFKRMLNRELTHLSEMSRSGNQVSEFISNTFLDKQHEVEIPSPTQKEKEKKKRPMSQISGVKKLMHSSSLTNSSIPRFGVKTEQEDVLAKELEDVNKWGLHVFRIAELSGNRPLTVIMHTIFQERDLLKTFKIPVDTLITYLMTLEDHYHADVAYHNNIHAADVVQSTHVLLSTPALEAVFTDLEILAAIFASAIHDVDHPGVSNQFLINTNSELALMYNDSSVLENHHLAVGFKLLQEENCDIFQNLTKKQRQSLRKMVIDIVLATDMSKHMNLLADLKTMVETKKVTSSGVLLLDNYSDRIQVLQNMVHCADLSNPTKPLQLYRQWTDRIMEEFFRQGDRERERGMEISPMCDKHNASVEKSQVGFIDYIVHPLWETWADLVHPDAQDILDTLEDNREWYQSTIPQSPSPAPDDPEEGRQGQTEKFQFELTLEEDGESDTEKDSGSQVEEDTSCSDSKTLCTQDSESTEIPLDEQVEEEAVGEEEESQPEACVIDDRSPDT
# method_summary: PDE4 IC50 determination by Scintillation Proximity Assay, PDE4D5
# Type: biochemical
# settings: Table 1B, Formula I compounds; read-out: IC50 PDE4D5
measured_metric: IC50

Incoming: Using the record for COc1ccc(C(=O)c2sc(Nc3ccc(Cl)cc3)c(C#N)c2N)cc1 [Compound 1-36] , state its measured IC50.
Outgoing: < 10 µM

Incoming: Give reported IC50 value for N#Cc1c(NC2CCCC2)sc(C(=O)c2cc(-c3ccccc3)no2)c1N [Compound 1-143]
Outgoing: < 10 µM

Incoming: Provide measured IC50 value, entry: COc1ccccc1Nc1sc(C(=O)c2ccccc2)c(N)c1C#N [Compound 1-30]
Outgoing: < 10 µM

Incoming: Supply reported IC50 belonging to this molecule: N#Cc1c(NCc2cccc(Cl)c2)sc(C(=O)c2cc(-c3ccccc3)no2)c1N [Compound 1-214]
Outgoing: > 10 µM

Incoming: In one line, give reported IC50 of the entry N#Cc1c(Nc2ccccc2)sc(C(=O)c2cc(-c3ccccc3)no2)c1N [Compound 1-192] .
Outgoing: < 10 µM

Incoming: Name the recorded IC50 of the molecule listed here: CCC(C)Nc1sc(C(=O)c2cc(-c3ccc(Cl)c(Cl)c3)no2)c(N)c1C(N)=O (stereo not shown) [Compound 1-249]
Outgoing: > 10 µM

Incoming: Please give measured IC50 of the following entry: N#Cc1c(NCCN2CCCCC2)sc(C(=O)c2cc(-c3ccccc3)no2)c1N [Compound 1-62]
Outgoing: > 10 µM

Incoming: Identify measured IC50 corresponding to Cc1c(C(=O)c2sc(NCC3CCCO3)c(C#N)c2N)cnn1-c1ccccc1 (stereo not shown) [Compound 1-57]
Outgoing: > 10 µM

Incoming: State its IC50 for this molecule: Cc1c(C(=O)c2sc(Nc3cccc(C#N)c3)c(C#N)c2N)cnn1-c1ccccc1 [Compound 1-125]
Outgoing: < 10 µM

Incoming: Entry N#Cc1c(NC2CCCC2)sc(C(=O)c2cc(-c3ccc(F)cc3)no2)c1N [Compound 1-221] needs its IC50 filled in; supply it.
Outgoing: > 10 µM

Incoming: Fill in reported IC50 for this entry: COc1ccc(C(=O)c2sc(NC3CCCC3)c(C#N)c2N)c(OC)c1 [Compound 1-43]
Outgoing: < 10 µM

Incoming: Consider the molecule NC(=O)c1c(Nc2ccccc2)sc(C(=O)c2ccccc2)c1N [Compound 1-12] and give its recorded IC50.
Outgoing: > 10 µM

Incoming: Check the records and state IC50 for N#Cc1c(NC2CCCC2)sc(C(=O)c2ccccn2)c1N [Compound 1-66]
Outgoing: < 10 µM

Incoming: Quick one: give measured IC50 for N#Cc1c(Nc2ccco2)sc(C(=O)c2cc(-c3ccccc3)no2)c1N [Compound 1-208]
Outgoing: > 10 µM

Incoming: Given COc1ccc(Nc2sc(C(=O)c3ccc(-c4ccccn4)s3)c(N)c2C#N)cc1 [Compound 1-68] , respond with its IC50.
Outgoing: > 10 µM

Incoming: Input N#Cc1c(NCCN2CCCCC2)sc(C(=O)c2cc(-c3ccc(Cl)cc3Cl)no2)c1N [Compound 1-82] , output reported IC50.
Outgoing: > 10 µM

Incoming: Quickly give me recorded IC50 for N#Cc1c(NC2CCCC2)sc(C(=O)c2nc3ccccc3s2)c1N [Compound 1-215]
Outgoing: < 10 µM

Incoming: Return reported IC50. Input molecule: N#Cc1c(NC2CCCC2)sc(C(=O)c2cc(-c3ccc(N)cc3)no2)c1N [Compound 1-250]
Outgoing: < 10 µM

Incoming: Name the recorded IC50 of the molecule listed here: N#Cc1cccc(Nc2sc(C(=O)c3ccc(-c4ccccn4)s3)c(N)c2C#N)c1 [Compound 1-69]
Outgoing: < 10 µM

Incoming: Look up and report measured IC50 for this entry: N#Cc1c(Nc2ccccc2F)sc(C(=O)c2ccc(-c3ccccn3)s2)c1N [Compound 1-67]
Outgoing: < 10 µM

Incoming: Tell me measured IC50 for Cc1nc(-c2cnccn2)sc1C(=O)c1sc(NC2CCCC2)c(C#N)c1N [Compound 1-219] please.
Outgoing: < 10 µM

Incoming: For the molecule COc1cccc(CNc2sc(C(=O)c3cc(-c4ccccc4)no3)c(N)c2C#N)c1 [Compound 1-216] , give its measured IC50 value.
Outgoing: > 10 µM
